Here we gather pKi data for Serine protease 1 (Bos taurus, UniProt P00760) reported by several publications.
Scale explanation: pKi corresponds to minus log10 of a concentration expressed in moles per litre.

IN: Report pKi for `CC1CCN(C(=O)[C@@H](N)Cc2cccc(C(=N)N)c2)CC1` tested on Serine protease 1 (Bos taurus, UniProt P00760).
Sequence (P00760 whole entry): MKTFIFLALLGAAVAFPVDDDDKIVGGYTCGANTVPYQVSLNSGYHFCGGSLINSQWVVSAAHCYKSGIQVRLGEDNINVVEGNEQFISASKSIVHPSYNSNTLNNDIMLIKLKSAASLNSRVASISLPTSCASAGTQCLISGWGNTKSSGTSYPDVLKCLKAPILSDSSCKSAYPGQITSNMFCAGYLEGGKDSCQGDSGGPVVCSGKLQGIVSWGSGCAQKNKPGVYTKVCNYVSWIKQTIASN
OUT: 4.54

IN: Report pKi for `N=C(N)c1cccc(C[C@H](NS(=O)(=O)c2ccc3ccccc3c2)C(=O)N2CCC(C(=O)OC3CCCCC3)CC2)c1` tested on Serine protease 1 (Bos taurus, UniProt P00760).
OUT: 7.10

IN: Report pKi for `CN(C(=O)[C@H](Cc1ccc(CN)cc1)NS(=O)(=O)c1ccc2ccccc2c1)C1CCCC1` tested on Serine protease 1 (Bos taurus, UniProt P00760).
OUT: 4.87

IN: Report pKi for N=C(N)N1CCCC(CNC(=O)C[C@H](NS(=O)(=O)c2ccc3ccccc3c2)C(=O)N2CCOCC2)C1 (stereo partly drawn) tested on Serine protease 1 (Bos taurus, UniProt P00760).
OUT: 5.12

IN: Report pKi for Cc1ccc(NS(=O)(=O)Cc2cccc(C(F)(F)F)c2)c(=O)n1CC(=O)NCC1CCc2n[nH]cc2C1 (stereo not drawn) tested on Serine protease 1 (Bos taurus, UniProt P00760).
OUT: 3.37

IN: Report pKi for `CS(=O)(=O)c1ccccc1-c1ccc(NC(=O)c2conc2-c2cccc(C(=N)N)c2)cc1` tested on Serine protease 1 (Bos taurus, UniProt P00760).
OUT: 7.60

IN: Report pKi for `CS(=O)(=O)N[C@@H](C(=O)N1CCC[C@H]1C(=O)NCc1ccc(C(=N)N)cc1)C(c1ccccc1)c1ccccc1` tested on Serine protease 1 (Bos taurus, UniProt P00760).
OUT: 9.15
